Experimental Protocol: Solubility test: solubility in water
Format: physicochemical
Listing of recorded Solubility in water by entry.

Query: Solubility in water; subject: CCCCCCCC/C=C\CCCCCCCC(=O)Nc1ccn([C@@H]2O[C@H](COP(=O)(O)O)[C@@H](O)[C@@H]2O)c(=O)n1 [N^4 -Oleoyl-5'-PNa2] > 250000 µg/mL

Query: Solubility in water; subject: O=C(Nc1ccn([C@@H]2O[C@H](COP(=O)(O)O)[C@@H](O)[C@@H]2O)c(=O)n1)C12CC3CC(CC(C3)C1)C2 [N^4 -Adamantoyl-5'-PNa2] > 10000 µg/mL

Query: Solubility in water; subject: CCCCCCCC/C=C\CCCCCCCC(=O)Nc1ccn([C@@H]2O[C@H](COP(=O)(O)O)[C@@H](O)[C@@H]2O)c(=O)n1 [N^4 -Oleoyl-5'-PNa] > 50000 µg/mL

Query: Solubility in water; subject: CCCCCCCCCCCCCCCCC(=O)Nc1ccn([C@@H]2O[C@H](COP(=O)(O)O)[C@@H](O)[C@@H]2O)c(=O)n1 [N^4 -Margaroyl-5'-PNa] > 10000 µg/mL

Query: Solubility in water; subject: CCCCCCCCCCCCCCCC(=O)Nc1ccn([C@@H]2O[C@H](COP(=O)(O)O)[C@@H](O)[C@@H]2O)c(=O)n1 [N^4 -Palmitoyl-5'-PNa] > 30000 µg/mL

Query: Solubility in water; subject: O=C(Nc1ccn([C@@H]2O[C@H](COP(=O)(O)O)[C@@H](O)[C@@H]2O)c(=O)n1)C12CC3CC(CC(C3)C1)C2 [N^4 -Adamantoyl-5'-PNa] 2000 µg/mL

Query: Solubility in water; subject: CCCCCCCCCCCCCCCCCCCCCCCCCCCC(=O)Nc1ccn([C@@H]2O[C@H](COP(=O)(O)O)[C@@H](O)[C@@H]2O)c(=O)n1 [N^4 -Montanoyl-5'-PNa2] > 5000 µg/mL
